- measured-target: human KDR protein in HEK-293 cells (Homo sapiens (Human), UniProt P35968)
- Sequence (P35968 20-1356): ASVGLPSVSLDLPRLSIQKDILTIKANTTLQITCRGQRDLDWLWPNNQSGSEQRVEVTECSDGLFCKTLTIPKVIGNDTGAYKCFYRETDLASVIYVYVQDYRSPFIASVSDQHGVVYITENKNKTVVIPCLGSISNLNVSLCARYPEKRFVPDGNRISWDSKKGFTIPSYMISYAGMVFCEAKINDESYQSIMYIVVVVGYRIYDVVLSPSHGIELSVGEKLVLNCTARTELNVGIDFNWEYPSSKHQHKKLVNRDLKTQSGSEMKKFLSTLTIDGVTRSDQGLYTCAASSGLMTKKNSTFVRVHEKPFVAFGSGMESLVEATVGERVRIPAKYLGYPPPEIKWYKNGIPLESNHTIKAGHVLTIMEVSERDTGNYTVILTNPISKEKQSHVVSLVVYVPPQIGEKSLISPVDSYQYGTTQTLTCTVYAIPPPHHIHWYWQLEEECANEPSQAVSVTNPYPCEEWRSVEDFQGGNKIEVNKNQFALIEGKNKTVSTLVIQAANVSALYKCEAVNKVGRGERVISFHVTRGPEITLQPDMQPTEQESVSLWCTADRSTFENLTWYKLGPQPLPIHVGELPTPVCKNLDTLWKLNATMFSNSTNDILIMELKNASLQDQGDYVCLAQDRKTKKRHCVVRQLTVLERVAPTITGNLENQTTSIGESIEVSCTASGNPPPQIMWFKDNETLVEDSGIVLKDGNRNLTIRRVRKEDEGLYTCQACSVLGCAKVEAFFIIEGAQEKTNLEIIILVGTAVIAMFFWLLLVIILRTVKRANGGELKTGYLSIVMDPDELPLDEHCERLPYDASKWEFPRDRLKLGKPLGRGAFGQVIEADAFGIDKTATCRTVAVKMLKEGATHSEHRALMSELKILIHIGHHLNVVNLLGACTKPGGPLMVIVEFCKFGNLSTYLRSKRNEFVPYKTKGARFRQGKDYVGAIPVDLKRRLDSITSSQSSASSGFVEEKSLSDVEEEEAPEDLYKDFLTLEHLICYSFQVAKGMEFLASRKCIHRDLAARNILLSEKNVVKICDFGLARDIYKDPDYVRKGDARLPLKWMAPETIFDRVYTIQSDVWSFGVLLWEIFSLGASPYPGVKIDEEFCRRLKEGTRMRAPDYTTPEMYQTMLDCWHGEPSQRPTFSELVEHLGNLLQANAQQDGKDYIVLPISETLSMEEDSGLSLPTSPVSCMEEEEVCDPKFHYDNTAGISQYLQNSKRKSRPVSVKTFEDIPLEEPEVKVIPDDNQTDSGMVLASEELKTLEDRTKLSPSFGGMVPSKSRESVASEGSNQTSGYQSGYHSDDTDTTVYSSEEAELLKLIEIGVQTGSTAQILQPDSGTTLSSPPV
- assay-details: KDR Cell Assay (phospho-KDR in HEK-293 cells expressing inducible KDR)
- Type: cell-based
- experimental-parameters: pKDR Cell HEK 10% FBS IC50, HEK-293 cells expressing inducible KDR, VEGF stimulated, 10% FBS
pIC50: −log10 of the molar value. Counter-ions that a name gives are not always drawn.
Output 1 (yes) for pIC50 not less than 6; output 0 (no) otherwise.

> print(dat)
                                   compound  label.class
1  Cn1cc(-c2cc(-c3ccc(N4CCN(S(=O)(=O)CC5CC5)CC4)nc3)c3c(C#N)cnn3c2)cn1      1 (yes)
2  CC(C)CC(=O)N1CCN(c2ccc(-c3cc(-c4ccn(C)n4)cn4ncc(C#N)c34)cn2)CC1       0 (no)
3  COCC(=O)N1CCN(c2ccc(-c3cc(-c4cnn(C)c4)cn4ncc(C#N)c34)cn2)CC1 [Example 40, trifluoroacetate]      1 (yes)

* * *

- measured-target: human KDR protein in HEK-293 cells (Homo sapiens (Human), UniProt P35968)
- assay-details: KDR Cell Assay (phospho-KDR in HEK-293 cells expressing inducible KDR)
- Format: cell-based
- experimental-parameters: pKDR Cell HEK 10% FBS IC50, HEK-293 cells expressing inducible KDR, VEGF stimulated, 10% FBS
- Procedure: The cellular potency of a compound inhibiting KDR kinase was determined in HEK-293 cells expressing an inducible human KDR protein. […] The cells were incubated for 1 hour with test compound in DMEM at a final DMSO concentration of 0.25%. […] The lysate was stored at −80° C. until ready for assay. Phospho-KDR was measured using a phospho-KDR kit (Catalog #K151BOC) purchased from Meso Scale Diagnostics (Rockville, Md.) according to the manufacturer's instructions. […]
pIC50: −log10 of the molar value.
parameter: pIC50

> print(dat)
                                   molecule  recorded.measurement
1  C[C@@H](NC(=O)C1(C)CCN(c2ccc(-c3cc(-c4cnn(C)c4)cn4ncc(C#N)c34)cn2)CC1)C(F)(F)F [Example 253]                  6.22
2  Cn1cc(-c2cc(-c3ccc(N4CCN(CC(O)C(C)(C)C)CC4)nc3)c3c(C#N)cnn3c2)cn1 (stereo not shown) [Example 148]                  5.97
3  CO[C@H]1C[C@H](NC(=O)C2CCN(c3ccc(-c4cc(-c5cnn(C)c5)cn5ncc(C#N)c45)cn3)CC2)C1 [Example 240]                  6.05
4  Cn1cc(-c2cc(-c3ccc(N4CCC(NC(=O)OC(C)(C)C)CC4)nc3)c3c(C#N)cnn3c2)cn1 [Example 176]                  6.03

* * *

- measured-target: N-terminal GST tagged recombinant human RET cytoplasmic domain (aa 658-end), wild type RET kinase (Homo sapiens (Human), UniProt P07949)
- Sequence (P07949 658-1114): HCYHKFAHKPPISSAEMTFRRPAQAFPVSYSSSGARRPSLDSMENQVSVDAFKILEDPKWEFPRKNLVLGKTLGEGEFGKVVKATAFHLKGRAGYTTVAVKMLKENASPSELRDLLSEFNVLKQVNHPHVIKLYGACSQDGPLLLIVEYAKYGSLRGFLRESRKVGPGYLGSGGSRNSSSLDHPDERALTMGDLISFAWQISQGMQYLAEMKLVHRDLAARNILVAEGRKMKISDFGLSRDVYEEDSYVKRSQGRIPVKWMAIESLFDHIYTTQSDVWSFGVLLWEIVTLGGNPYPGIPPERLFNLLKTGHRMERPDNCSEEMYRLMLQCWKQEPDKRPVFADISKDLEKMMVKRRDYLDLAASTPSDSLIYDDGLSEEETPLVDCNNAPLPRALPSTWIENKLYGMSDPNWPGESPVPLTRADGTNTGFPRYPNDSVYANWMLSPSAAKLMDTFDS
- assay-details: RET Enzyme Assay (HTRF KinEASE-TK), wild type RET
- Type: biochemical
- experimental-parameters: wild type RET, 1 mM ATP
pIC50: −log10 of the molar value.
Parameter pIC50: see the listing below.
parameter: pIC50

> print(dat)
                                smiles.text  recorded.measurement
1  Cn1cc(-c2cc(-c3ccc(N4CCN(C(=O)OC(C)(C)C)CC4)nc3)c3c(Br)cnn3c2)cn1                  6.18
2  Cn1cc(-c2cc(-c3ccc(N4CCN(C(=O)C(C)(C)O)CC4)nc3)c3c(C#N)cnn3c2)cn1                  7.44
3  COc1cccc(CN2CCN(c3ccc(-c4cc(-c5cnn(C)c5)cn5ncc(C#N)c45)cn3)CC2)n1                  7.97
4  Cn1cc(-c2cc(-c3ccc(N4CCN(C(=O)CN(C(=O)OC(C)(C)C)C(C)(C)C)CC4)nc3)c3c(C#N)cnn3c2)cn1                  7.51

* * *

- measured-target: human KDR protein in HEK-293 cells (Homo sapiens (Human))
- assay-details: KDR Cell Assay (phospho-KDR in HEK-293 cells expressing inducible KDR)
- Format: cell-based
- experimental-parameters: pKDR Cell HEK 10% FBS IC50, HEK-293 cells expressing inducible KDR, VEGF stimulated, 10% FBS
Counter-ions that a name gives are not always drawn.
Lab note: class by IC50, see L: < 500 nM; M: ≥ 500 nM and < 2000 nM; H: ≥ 2000 nM

> print(dat)
                                    molecule  label.class
 1  Cc1cc(C(=O)N2CCN(c3ccc(-c4cc(-c5cnn(C)c5)cn5ncc(C#N)c45)cn3)CC2)no1 [Example 37, trifluoroacetate]            L
 2  CO[C@H]1CCN(C(=O)N2CCN(c3ccc(-c4cc(-c5cnn(C(F)F)c5)cn5ncc(C#N)c45)cn3)CC2)C1            M
 3  Cn1cc(-c2cc(-c3ccc(N4CCC(O)CC4)nc3)c3c(C#N)cnn3c2)cn1            M
 4  Cn1cc(-c2cc(-c3ccc(N4CCN(C(=O)C5(c6cnccn6)CC5)CC4)nc3)c3c(C#N)cnn3c2)cn1            M
 5  COCC(C)NC(=O)C1CCN(c2ccc(-c3cc(-c4cnn(C)c4)cn4ncc(C#N)c34)cn2)CC1 (stereo not drawn)            M
 6  CN1CCN(C(=O)N2CCN(c3ccc(-c4cc(-c5cnn(C)c5)cn5ncc(C#N)c45)cn3)CC2)CC1            H
 7  CC(C)[C@@H](O)C(=O)N1CCN(c2ncc(-c3cc(-c4cnn(C)c4)cn4ncc(C#N)c34)cn2)CC1            M
 8  Cn1cc(-c2cc(-c3ccc(N4CCC(N5CCCC5=O)CC4)nc3)c3c(C#N)cnn3c2)cn1            L
 9  CC(C)NC(=O)CC1CCN(c2ccc(-c3cc(-c4cnn(C)c4)cn4ncc(C#N)c34)cn2)CC1            M
10  Cn1cc(-c2cc(-c3ccc(N4CCN(C(=O)C(C)(C)O)CC4)nc3)c3c(C#N)cnn3c2)cn1            H
11  CCC1(C(=O)N[C@H](C)C(F)(F)F)CCN(c2ccc(-c3cc(-c4cnn(C)c4)cn4ncc(C#N)c34)cn2)CC1            M
12  Cn1cc(-c2cc(-c3ccc(N4CCN(C(=O)NC5CC5)CC4)nc3)c3c(C#N)cnn3c2)cn1 [Example 131, trifluoroacetate]            L
13  Cn1cc(-c2cc(-c3ccc(N4CCN(C(=O)c5c(F)cccc5F)CC4)nc3)c3c(C#N)cnn3c2)cn1 [Example 51, trifluoroacetate]            L
14  CN(C)CC(=O)N1CCN(c2ccc(-c3cc(-c4cnn(C)c4)cn4ncc(C#N)c34)cc2)CC1            H
15  Cn1cc(-c2cc(-c3ccc(N4CCN(C(=O)C(C)(C)C)CC4)nc3)c3c(C#N)cnn3c2)cn1 [Example 34, trifluoroacetate]            H
16  Cn1cc(-c2cc(-c3ccc(N4CCN(C(=O)CCc5cccnc5)CC4)nc3)c3c(C#N)cnn3c2)cn1 [Example 43, trifluoroacetate]            M
17  CO[C@H]1C[C@H]2CC[C@@H](C1)N2c1ccc(-c2cc(-c3cnn(C)c3)cn3ncc(C#N)c23)cn1            L
18  Cn1cc(-c2cc(-c3ccc(N4CCN(C(=O)[C@H]5CC[C@@H](O)C5)CC4)nc3)c3c(C#N)cnn3c2)cn1            M
19  Cn1cc(-c2cc(-c3ccc(N4CCN(C(=O)C5(C(F)(F)F)CC5)CC4)nc3)c3c(C#N)cnn3c2)cn1            M
20  Cn1cc(-c2cc(-c3ccc(N4CCN(C(=O)c5cccnc5)CC4)nc3)c3c(C#N)cnn3c2)cn1            L
21  CC(C)C(=O)N[C@@H]1CCCN(c2ccc(-c3cc(-c4cnn(C)c4)cn4ncc(C#N)c34)cn2)C1            M
22  Cn1cc(-c2cc(-c3ccc(N4CCN(C(=O)C5(c6cccc(F)c6)CC5)CC4)nc3)c3c(C#N)cnn3c2)cn1            L
23  Cn1cc(-c2cc(-c3ccc(N4CCN(C(=O)[C@H](O)C(F)(F)F)CC4)nc3)c3c(C#N)cnn3c2)cn1            L
24  Cn1cc(-c2cc(-c3ccc(N4CCC(C(=O)NC5CC(F)(F)C5)CC4)nc3)c3c(C#N)cnn3c2)cn1            L
25  C[C@@H]([C@@H](O)c1ccccc1)N1CCN(c2ccc(-c3cc(-c4cnn(C)c4)cn4ncc(C#N)c34)cn2)CC1            M
